Target: recombinant human SAE enzyme (Homo sapiens (Human))
Sequence (Q9UBT2 whole entry): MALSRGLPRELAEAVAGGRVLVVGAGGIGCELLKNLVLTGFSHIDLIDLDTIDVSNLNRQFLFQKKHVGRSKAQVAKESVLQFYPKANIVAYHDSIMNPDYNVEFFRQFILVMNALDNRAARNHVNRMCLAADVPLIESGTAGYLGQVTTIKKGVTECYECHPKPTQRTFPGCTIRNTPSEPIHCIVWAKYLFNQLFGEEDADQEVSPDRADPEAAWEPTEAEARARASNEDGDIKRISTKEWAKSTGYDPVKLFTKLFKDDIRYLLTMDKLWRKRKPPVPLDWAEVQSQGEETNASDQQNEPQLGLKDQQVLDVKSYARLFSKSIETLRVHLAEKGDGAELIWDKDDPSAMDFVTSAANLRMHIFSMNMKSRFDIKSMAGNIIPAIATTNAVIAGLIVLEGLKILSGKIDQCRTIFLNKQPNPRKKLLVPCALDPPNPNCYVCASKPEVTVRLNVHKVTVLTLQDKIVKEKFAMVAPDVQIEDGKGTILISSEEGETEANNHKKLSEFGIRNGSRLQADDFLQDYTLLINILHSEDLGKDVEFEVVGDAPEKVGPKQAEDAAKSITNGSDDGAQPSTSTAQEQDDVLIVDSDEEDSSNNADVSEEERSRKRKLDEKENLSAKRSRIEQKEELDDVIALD
Sequence (Q9UBE0 whole entry partner): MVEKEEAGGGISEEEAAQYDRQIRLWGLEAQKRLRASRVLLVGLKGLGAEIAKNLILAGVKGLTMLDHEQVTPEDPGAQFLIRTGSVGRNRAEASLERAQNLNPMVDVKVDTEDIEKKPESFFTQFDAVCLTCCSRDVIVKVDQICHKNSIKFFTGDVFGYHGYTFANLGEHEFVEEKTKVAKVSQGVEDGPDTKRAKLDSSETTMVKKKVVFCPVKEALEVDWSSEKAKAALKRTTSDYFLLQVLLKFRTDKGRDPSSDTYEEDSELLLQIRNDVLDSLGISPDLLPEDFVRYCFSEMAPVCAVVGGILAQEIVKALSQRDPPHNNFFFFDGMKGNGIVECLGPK
Assay: SAE HTRF enzyme assay
Format: biochemical
Conditions: class symbols A/B/C

compound: NC(c1cccc(Cl)n1)c1cc(C(=O)c2cncnc2NC2CC(O)C(COS(N)(=O)=O)C2)sc1Cl (mixture of isomers)
IC50: < 10 nM
//
compound: NS(=O)(=O)OC[C@H]1C[C@@H](Nc2ncncc2C(=O)c2cc(CNCc3ccccc3)cs2)C[C@@H]1O
IC50: 100 to 1000 nM
//
compound: NS(=O)(=O)OC[C@H]1C[C@@H](Nc2ncncc2C(=O)c2cc([C@@H]3NCCc4ccc(Br)cc43)c(Cl)s2)[C@H](O)[C@@H]1O (single isomer, unassigned) [I-259b]
IC50: < 10 nM
//
compound: COc1ccc2c(c1)N(Cc1cc(C(=O)c3cncnc3N[C@@H]3C[C@H](COS(N)(=O)=O)[C@@H](O)C3)sc1C)CC2
IC50: < 10 nM
//
compound: NS(=O)(=O)OC[C@H]1C[C@@H](Nc2ncncc2C(=O)c2cc([C@]3(c4cccc(Cl)c4)CCO3)c(Cl)s2)C[C@@H]1O (mixture of isomers)
IC50: < 10 nM
//
compound: NS(=O)(=O)OC[C@H]1C[C@@H](Nc2ncncc2C(=O)c2cc([C@H](O)c3cccc(Cl)c3)cs2)C[C@@H]1O (single isomer, unassigned) [I-4b]
IC50: < 10 nM
//
compound: NS(=O)(=O)OC[C@H]1C[C@@H](Nc2ncncc2C(=O)c2cc(S(=O)(=O)c3ccccc3)cs2)C[C@@H]1O
IC50: 10 to 100 nM
//
compound: Cc1sc(C(=O)c2cncnc2N[C@@H]2C[C@H](COS(N)(=O)=O)[C@@H](O)C2)cc1[C@@H]1OCCc2ccsc21 (mixture of isomers) [I-269]
IC50: < 10 nM
//
compound: CCc1cccc(Cc2cc(C(=O)c3cncnc3N[C@@H]3C[C@H](COS(N)(=O)=O)[C@@H](O)C3)sc2C)c1
IC50: < 10 nM
//
compound: NS(=O)(=O)OC[C@H]1C[C@@H](Nc2ncncc2C(=O)c2cc([C@H](O)c3ccc(Cl)s3)c(Cl)s2)C[C@@H]1O (mixture of isomers)
IC50: < 10 nM
//
compound: NS(=O)(=O)OC[C@H]1C[C@@H](Nc2ncncc2C(=O)c2cc([C@@H]3OCCc4cccnc43)c(Cl)s2)C[C@@H]1O (single isomer, unassigned) [I-266a]
IC50: 100 to 1000 nM
//
compound: NS(=O)(=O)OC[C@H]1C[C@@H](Nc2ncncc2C(=O)c2cc([C@@H]3NCCc4ccc(Cl)nc43)c(Cl)s2)C[C@@H]1O (single isomer, unassigned) [I-253a]
IC50: < 10 nM
//
compound: NS(=O)(=O)OC[C@H]1C[C@@H](Nc2ncncc2C(=O)c2cc([C@@H]3OCCc4cccnc43)c(Cl)s2)C[C@@H]1O (single isomer, unassigned) [I-266b]
IC50: < 10 nM
//
compound: NS(=O)(=O)OC[C@H]1C[C@@H](Nc2ncncc2C(=O)c2cc([C@@]3(c4cccc(Cl)c4)CCCS3)cs2)C[C@@H]1O (mixture of isomers)
IC50: 100 to 1000 nM
//
compound: NS(=O)(=O)OC[C@H]1C[C@@H](Nc2ncncc2C(=O)c2cc(Cc3cccc(Br)c3)cs2)[C@H](O)[C@@H]1O
IC50: < 10 nM
